Reported Potency (cAMP, transient hRXFP1 in HEK293) values for a set of binders
# system under test: T1, human RXFP1 (human, UniProt Q9HBX9 1-757)
# T1 sequence (looked up): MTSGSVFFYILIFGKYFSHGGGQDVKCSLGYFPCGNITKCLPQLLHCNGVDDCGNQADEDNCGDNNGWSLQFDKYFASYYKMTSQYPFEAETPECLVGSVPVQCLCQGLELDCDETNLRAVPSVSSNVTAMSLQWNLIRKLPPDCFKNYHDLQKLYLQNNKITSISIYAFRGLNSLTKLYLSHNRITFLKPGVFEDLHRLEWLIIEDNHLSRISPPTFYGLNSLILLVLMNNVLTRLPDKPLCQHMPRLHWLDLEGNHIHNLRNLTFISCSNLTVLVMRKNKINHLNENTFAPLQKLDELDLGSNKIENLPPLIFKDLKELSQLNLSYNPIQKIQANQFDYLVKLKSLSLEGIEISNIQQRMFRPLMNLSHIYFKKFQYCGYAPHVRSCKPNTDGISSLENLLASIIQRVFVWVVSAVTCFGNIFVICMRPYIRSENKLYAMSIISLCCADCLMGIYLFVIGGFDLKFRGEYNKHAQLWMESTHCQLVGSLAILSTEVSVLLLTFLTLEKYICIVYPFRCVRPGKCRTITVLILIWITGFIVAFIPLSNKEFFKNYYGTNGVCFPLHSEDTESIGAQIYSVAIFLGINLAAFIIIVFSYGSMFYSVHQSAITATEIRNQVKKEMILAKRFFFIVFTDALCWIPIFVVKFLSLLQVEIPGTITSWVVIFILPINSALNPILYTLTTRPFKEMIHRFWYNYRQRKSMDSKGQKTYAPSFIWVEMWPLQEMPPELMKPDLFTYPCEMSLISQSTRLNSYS
# assay text: cell-based or functional assay
Give a bare numeral; the unit nM is implied.

Recorded Potency (cAMP, transient hRXFP1 in HEK293), per entry:
SEQ ID NO: 307 (Fc fusion) DKTHTCPPCPAPEAAGGPSVFLFPPKPKDTLMISRTPEVTCVVVDVSHEDPEVKFNWYVDGVEVHNAKTKPREEQYNSTYRVVSVLTVLHQDWLNGKEYKCKVSNKALAAPIEKTISKAKGQPREPQVYTLPPSRDELTKNQVSLTCLVKGFYPSDIAVEWESNGQPENNYKTTPPVLDSDGSFFLYSKLTVDKSRWQQGNVFSCSVLHEALHSHYTQKSLSLSPGKGGSDSWQEEVIKLCGRELVRAQIAICGKSTGGGEGGGEGGGEGGGQLYSALANKCCHVGCTKRSLARFC
15.8
SEQ ID NO: 86 (Fc fusion) DKTHTCPPCPAPEAAGGPSVFLFPPKPKDTLMISRTPEVTCVVVDVSHEDPEVKFNWYVDGVEVHNAKTKPREEQYNSTYRVVSVLTVLHQDWLNGKEYKCKVSNKALAAPIEKTISKAKGQPREPQVYTLPPSRDELTKNQVSLTCLVKGFYPSDIAVEWESNGQPENNYKTTPPVLDSDGSFFLYSKLTVDKSRWQQGNVFSCSVLHEALHSHYTQKSLSLSPGKGGSDSWQEEVIKLCGRELVRAQIAICGKSTASDAAGADADAGARQLYSALANKCCHVGCTKRSLAQFC
4
SEQ ID NO: 315 (Fc fusion) DKTHTCPPCPAPEAAGGPSVFLFPPKPKDTLMISRTPEVTCVVVDVSHEDPEVKFNWYVDGVEVHNAKTKPREEQYNSTYRVVSVLTVLHQDWLNGKEYKCKVSNKALAAPIEKTISKAKGQPREPQVYTLPPSRDELTKNQVSLTCLVKGFYPSDIAVEWESNGQPENNYKTTPPVLDSDGSFFLYSKLTVDKSRWQQGNVFSCSVLHEALHSHYTQKSLSLSPGGGSDSWQEEVIKLCGRELVRAQIAICGKSTGGGEGGGEGGGEGRQLYSALANKCCHVGCTKRSLARFC
3.3

Note: attention shifts to another entry.
Task item: What value of Potency (cAMP, transient hRXFP1 in HEK293) has been recorded for this entry: SEQ ID NO: 108 (Fc fusion) DKTHTCPPCPAPEAAGGPSVFLFPPKPKDTLMISRTPEVTCVVVDVSHEDPEVKFNWYVDGVEVHNAKTKPREEQYNSTYRVVSVLTVLHQDWLNGKEYKCKVSNKALAAPIEKTISKAKGQPREPQVYTLPPSRDELTKNQVSLTCLVKGFYPSDIAVEWESNGQPENNYKTTPPVLDSDGSFFLYSKLTVDKSRWQQGNVFSCSVLHEALHSHYTQKSLSLSPGEGGSDSWQEEVIKLCGRELVRAQIAICGKSTASDAAGAEAEAGARQLYSALANKCCHVGCTKQSLAQFC
Reply: 35.2
